tested on: Asp. flavus (ATCC 204304); assay: Microdilution MIC90, strain G; assay type: cell-based, Aspergillus flavus; conditions: filamentous fungi, 48 h at 37 °C, triplicate
Experimental Readout: MIC90 (μg·mL^–1)
All answers are understood in μg·mL^–1, so give the number only.

# example entries with known answers
# Compound, Study Target, Experimental Readout, Assay Result
data = [
    ("O=C(Nc1nnc(SCC(O)(Cn2cncn2)c2ccc(F)cc2F)s1)Nc1ccccc1C(F)(F)F (stereo not shown)", "Asp. flavus (ATCC 204304)", "MIC90", 2),
    ("O=C(Nc1cccc(F)c1)Nc1nnc(SCC(O)(Cn2cncn2)c2ccc(F)cc2F)s1 (stereo not shown)", "Asp. flavus (ATCC 204304)", "MIC90", 4),
    ("O=C(Nc1nnc(SCC(O)(Cn2cncn2)c2ccc(F)cc2F)s1)Nc1ccc(F)cc1F (stereo not shown)", "Asp. flavus (ATCC 204304)", "MIC90", 4),
]

Which MIC90 is reported for this compound? O=C(Nc1nnc(SCC(O)(Cn2cncn2)c2ccc(F)cc2F)s1)Nc1ccccc1Cl (stereo not shown) 4

Which MIC90 is reported for this compound? Cc1ccc(NC(=O)Nc2nnc(SCC(O)(Cn3cncn3)c3ccc(F)cc3F)s2)cc1Cl (stereo not shown) 4

Which MIC90 is reported for this compound? Cc1cccc(NC(=O)Nc2nnc(SCC(O)(Cn3cncn3)c3ccc(F)cc3F)s2)c1 (stereo not shown) 2

Which MIC90 is reported for this compound? O=C(Nc1cccc(Cl)c1)Nc1nnc(SCC(O)(Cn2cncn2)c2ccc(F)cc2F)s1 (stereo not shown) 4

* * *

tested on: T. mentagrophytes (PTCC 5054); experiment: Microdilution MIC90, strain M; format: cell-based; settings: Trichophyton mentagrophytes, PTCC5054, 48 h
Below, each of the compounds is paired with its reported MIC90 value.
Provide a numeric answer, followed by its unit.

Which MIC90 is reported for this compound? Cc1cccc(NC(=O)Nc2nnc(SCC(O)(Cn3cncn3)c3ccc(F)cc3F)s2)c1 (stereo not drawn) 16 µg/mL

Which MIC90 is reported for this compound? Cc1ccc(NC(=O)Nc2nnc(SCC(O)(Cn3cncn3)c3ccc(F)cc3F)s2)cc1Cl (stereo not drawn) 16 µg/mL

Which MIC90 is reported for this compound? O=C(Nc1ccccc1)Nc1nnc(SCC(O)(Cn2cncn2)c2ccc(F)cc2F)s1 (stereo not drawn) 16 µg/mL

* * *

tested on: C. albicans (ATCC 10231); experiment: Microdilution MIC90, strain A; assay type: cell-based; settings: 24 h, strain A, yeast, 24 h at 37 °C, triplicate
Note to self: use 1 (yes) only for MIC90 readings below 8 µg/mL; a reading exactly at 8 µg/mL still gets 0 (no).

Use the examples below as a reference point.
# Compound, Assigned Label
measured = [
    ("O=C(Nc1ccc(F)cc1)Nc1nnc(SCC(O)(Cn2cncn2)c2ccc(F)cc2F)s1 (stereo not drawn)", "1 (yes)"),
    ("Cc1ccc(NC(=O)Nc2nnc(SCC(O)(Cn3cncn3)c3ccc(F)cc3F)s2)cc1Cl (stereo not drawn)", "0 (no)"),
]

Would you kindly verify if MIC90 of O=C(Nc1cccc(F)c1)Nc1nnc(SCC(O)(Cn2cncn2)c2ccc(F)cc2F)s1 (stereo not drawn) is strictly less than 8 µg/mL? 1 (yes)

Would you kindly verify if MIC90 of O=C(Nc1nnc(SCC(O)(Cn2cncn2)c2ccc(F)cc2F)s1)Nc1ccccc1Br (stereo not drawn) is strictly less than 8 µg/mL? 0 (no)

Would you kindly verify if MIC90 of OC(Cn1cncn1)(Cn1cncn1)c1ccc(F)cc1F [FLC, Fluconazole, reference compound] is strictly less than 8 µg/mL? 0 (no)
